Every entry's value here was drawn from patent US12319684B2.

Molecular target: human apelin receptor (APJ, AGTRL-1, APLNR) (Homo sapiens, UniProt P35414)
Construct: host or cells: Chinese hamster ovary cells
Assay: APJ cAMP cell-based assay (forskolin-stimulated CHO cells, enzyme fragment complementation)
Conditions: CHO cells expressing human APJ, forskolin-stimulated, 0.5 h incubation; 50% of control (apelin-13, 1 nM) response; read-out: APJ cAMP EC50
readout.kind: EC50

IN: Requested read-out: EC50. Entry: COc1ccccc1-n1c(SCc2csc(-c3ccc(F)cc3)n2)nnc1-c1cccs1
OUT: 1170 nM

IN: Thanks! And COc1ccc2nc(CSc3nnc(-c4cccs4)n3-c3ccccc3OC)cc(=O)n2c1 ?
OUT: 70.5 nM

IN: # iterate: COc1ccccc1-n1c(SCc2coc(-c3ccc(F)cc3)n2)nnc1-c1cccs1
OUT: 105 nM

IN: And for COc1ccccc1-n1c(SCc2cc(=O)n3cc(C)ccc3n2)nnc1-c1ccc(C)s1 ?
OUT: 70.4 nM

IN: Similarly, COc1ccccc1-n1c(SCc2nc(=O)c3cc(OC(F)(F)F)ccc3[nH]2)nnc1-c1cccs1 ?
OUT: 1370 nM

IN: What would you report for COc1ccccc1-n1c(SCc2cccc(C)c2)nnc1-c1cccs1 ?
OUT: 11300 nM

IN: Try this compound next: COc1ccccc1-n1c(OCc2ccccc2)nnc1-c1cccs1
OUT: > 10000 nM

IN: Next entry: COc1ccccc1-n1c(SCc2nc(=O)c3c(F)cccc3[nH]2)nnc1-c1cccs1
OUT: 8620 nM

====

Biological target: human apelin receptor (APJ, AGTRL-1, APLNR) (Homo sapiens, UniProt P35414)
Construct: host or cells: Chinese hamster ovary cells
Test: APJ cAMP cell-based assay (forskolin-stimulated CHO cells, enzyme fragment complementation)
Conditions: CHO, 0.5 h; percentage of the maximal apelin-13 response at 1 nM (control); read-out: APJ cAMP % resp (efficacy)
readout.kind: Emax (%)
Express your answer in %, writing the number without its unit.

IN: Entry under review: COc1ccccc1-n1c(SCc2nc(=O)c3cccc(C)c3[nH]2)nnc1-c1cccs1 . Reported Emax?
OUT: 134

IN: COc1ccccc1-n1c(SCc2cc(=O)n3cc(C)ccc3n2)nnc1-c1ccc(Cl)s1 ?
OUT: 136

IN: Another molecule: COc1ccc2nc(CSc3nnc(-c4cccs4)n3-c3ccccc3OC)cc(=O)n2c1
OUT: 130

IN: Try COc1ccccc1-n1c(SCc2cccc(C)c2)nnc1-c1cccs1 next.
OUT: 159

IN: Then COc1ccccc1-n1c(SCc2cc(=O)n3cc(C)ccc3n2)nnc1-c1ccc(N(C)C)cc1 ?
OUT: 176

IN: Another molecule: COc1ccccc1-n1c(SCc2cc(=O)n3cc(C)ccc3n2)nnc1-c1ccoc1
OUT: 84

IN: One more molecule: COc1ccccc1-n1c(SCc2nc(=O)c3cc(C#N)ccc3[nH]2)nnc1-c1cccs1
OUT: 118

IN: Next entry: COc1ccc2[nH]c(CSc3nnc(-c4cccs4)n3-c3ccccc3OC)nc(=O)c2c1
OUT: 101

IN: Same read-out for COc1ccccc1-n1c(SCc2nc(=O)c3ccc(C(F)(F)F)cc3[nH]2)nnc1-c1cccs1 ?
OUT: 160

IN: Another molecule to look at: COc1ccccc1-n1c(SCc2cc(=O)n3cc(C#N)ccc3n2)nnc1-c1cccs1
OUT: 54

IN: What would you report for COc1ccccc1-n1c(SCc2cc(=O)n3cc(C)ccc3n2)nnc1-c1ccsc1 ?
OUT: 109

IN: Try COc1ccccc1-n1c(SCc2cccc(F)c2)nnc1-c1cccs1 next.
OUT: 166

IN: Do the same for COc1ccccc1-n1c(SCc2coc(-c3ccc(OC(F)(F)F)cc3)n2)nnc1-c1cccs1 please
OUT: 102

IN: Ok, now COc1ccccc1-n1c(SCc2cc(=O)n3cc(C)ccc3n2)nnc1-c1ccc(C)cc1
OUT: 126

IN: Consider next the molecule COc1ccccc1-n1c(SCc2cc(=O)n3cc(C)ccc3n2)nnc1-c1ccc(C#N)cc1 in the same way.
OUT: 94

IN: Next molecule: COc1ccccc1-n1c(SCc2nc(=O)c3cc(Br)ccc3[nH]2)nnc1-c1cccs1
OUT: 80

IN: Same read-out for COc1ccccc1-n1c(SCc2coc(-c3ccc(C(F)(F)F)cc3)n2)nnc1-c1cccs1 ?
OUT: 18

IN: Consider next the molecule COc1ccccc1-n1c(SCc2coc(-c3ccc(Br)cc3)n2)nnc1-c1cccs1 in the same way.
OUT: 33

IN: Now consider COc1ccccc1-n1c(SCc2cc(=O)n3ccc(C)cc3n2)nnc1-c1cccs1 and answer again.
OUT: 125

IN: Try the molecule COc1ccccc1-n1c(SCc2cc(=O)n3cc(C)ccc3n2)nnc1-c1nccn1C
OUT: 57

IN: COc1ccccc1-n1c(SCc2cc(=O)n3cc(C)ccc3n2)nnc1-c1ccc(Br)s1 , same question.
OUT: 137

IN: Also COc1ccccc1-n1c(SCc2csc(-c3ccc(C(F)(F)F)cc3)n2)nnc1-c1cccs1 ?
OUT: 33

IN: Lookup COc1ccccc1-n1c(SCc2ccc([N+](=O)[O-])cc2)nnc1-c1cccs1
OUT: 106

IN: Then COc1ccccc1-n1c(SCc2ccc3ccccc3n2)nnc1-c1cccs1 ?
OUT: 79

IN: Another molecule to check: Cc1ccc2nc(CSc3nnc(-c4cccs4)n3-c3ccccc3C)cc(=O)n2c1
OUT: 109

IN: What do you get for COc1ccccc1-n1c(SCc2nc(=O)c3cc(C)ccc3[nH]2)nnc1-c1cccs1 ?
OUT: 121

IN: Next: Cc1ccc2nc(CSc3nnc(-c4cccs4)n3-c3ccc(Cl)cc3)cc(=O)n2c1
OUT: 86

IN: Also COc1ccccc1-n1c(OCc2csc(-c3ccccc3)n2)nnc1-c1cccs1 ?
OUT: 109

IN: Request: Cc1ccc2nc(CSc3nnc(-c4cccs4)n3-c3ccccc3OC(F)(F)F)cc(=O)n2c1
OUT: 82

IN: // query: COc1ccccc1-n1c(SCc2cc(=O)n3cc(C)ccc3n2)nnc1-c1sccc1C
OUT: 89

IN: Can you handle COc1ccccc1-n1c(SCc2cc(=O)n3cc(Br)ccc3n2)nnc1-c1cccs1 next?
OUT: 117

IN: Please do the same for Cc1ccc2nc(CSc3nnc(-c4cccs4)n3-c3ccccc3Cl)cc(=O)n2c1 as well.
OUT: 62

====

Target: human apelin receptor (APJ, AGTRL-1, APLNR) (Homo sapiens, UniProt P35414)
Construct: host or cells: Chinese hamster ovary cells
Sequence (P35414 1-380): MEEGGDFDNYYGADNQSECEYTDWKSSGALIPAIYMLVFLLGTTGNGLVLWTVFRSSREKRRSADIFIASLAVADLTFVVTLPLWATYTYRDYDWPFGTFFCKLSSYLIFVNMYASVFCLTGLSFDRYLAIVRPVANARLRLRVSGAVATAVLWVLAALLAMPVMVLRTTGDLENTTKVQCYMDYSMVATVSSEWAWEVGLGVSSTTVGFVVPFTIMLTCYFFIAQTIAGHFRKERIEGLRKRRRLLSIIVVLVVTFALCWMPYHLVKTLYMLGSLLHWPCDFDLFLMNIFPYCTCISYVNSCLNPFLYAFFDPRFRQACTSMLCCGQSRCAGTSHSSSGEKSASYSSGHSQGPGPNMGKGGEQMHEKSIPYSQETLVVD
Assay: APJ cAMP cell-based assay (forskolin-stimulated CHO cells, enzyme fragment complementation)
Details: CHO cells expressing human APJ, forskolin-stimulated, 0.5 h incubation; 50% of control (apelin-13, 1 nM) response; read-out: APJ cAMP EC50
Please go through the items and note down their EC50.

IN: Recorded EC50 for COc1ccccc1-n1c(NCc2csc(-c3ccc(C)cc3)n2)nnc1-c1cccs1 with human apelin receptor (APJ, AGTRL-1, APLNR) (Homo sapiens, UniProt P35414), please?
OUT: > 10 µM

IN: And Cc1ccc2nc(CSc3nnc(-c4cccs4)n3-c3ccc(Cl)cc3)cc(=O)n2c1 ?
OUT: > 10 µM

IN: What do you have for COc1ccccc1-n1c(SCc2csc(-c3ccc([N+](=O)[O-])cc3)n2)nnc1-c1cccs1 ?
OUT: > 10 µM

====

Target: human apelin receptor (APJ, AGTRL-1, APLNR) (Homo sapiens, UniProt P35414)
Construct: host or cells: Chinese hamster ovary cells
Test: APJ cAMP cell-based assay (forskolin-stimulated CHO cells, enzyme fragment complementation)
Settings: CHO, 0.5 h; percentage of the maximal apelin-13 response at 1 nM (control); read-out: APJ cAMP % resp (efficacy)
API: label(entry) gives Criterion met if the entry's Emax is strictly smaller than 90%; on equality or larger values it gives Criterion not met.

IN: Determine if COc1ccccc1-n1c(SCc2nc(=O)c3c(F)cccc3[nH]2)nnc1-c1cccs1 [Example 56] shows Emax strictly lower than 90%.
OUT: Criterion not met

IN: Also COc1cccc(-n2c(SCc3cc(=O)n4cc(C)ccc4n3)nnc2-c2cccs2)c1 [Example 22] , if possible.
OUT: Criterion not met

IN: Same lookup for COc1ccccc1-n1c(SCc2cc(=O)n3cc(C)ccc3n2)nnc1-c1ccccc1 [Example 3] , please.
OUT: Criterion not met

IN: Then what about the compound Cc1cccc(-n2c(SCc3cc(=O)n4cc(C)ccc4n3)nnc2-c2cccs2)c1 [Example 21] ?
OUT: Criterion not met

IN: Next entry: COc1ccccc1-n1c(SCc2ccc(C)cc2)nnc1-c1cccs1 [Example 75]
OUT: Criterion met

IN: Proceed to COc1ccccc1-n1c(SCc2nc(=O)c3cc(F)ccc3[nH]2)nnc1-c1cccs1 [Example 55]
OUT: Criterion not met
